Give measured MIC90 for each item. Keep answers brief.
Test system: Mycobacterium tuberculosis variant bovis
test: Antimycobacterial activity against Mycobacterium bovis BCG ATCC 35734 after 5 days by broth dilution method
Format: functional
test.conditions: ATCC 35734, 120 h

| chemical.smiles | MIC90 |
| --- | --- |
| CC(C)=CCC/C(C)=C/Cn1cc(CNC2CCCC2)c2cc(F)ccc21 | 14 µM |
| CCCCCCCCn1cc(CN2CCCCC2)c2c(F)cccc21 | 11 µM |
| CCCCCCCCn1cc(CN(C)CCC)c2cc(F)ccc21 | 35 µM |
| Fc1ccc2c(c1)c(CN1CCCCC1)cn2CCCc1ccccc1 | 20 µM |
| CCCCCCCCn1ccc2c(F)cccc21 | > 50 µM |

Provide MIC90 for all items below, preserving their order.
1. CCCCCCCCCCCCn1cc(CN2CCCCCC2)c2c(F)cccc21
2. CCCCCCCCn1cc(CN2CCCCC2)c2ccc(OC)cc21

10 µM
13 µM

Count: 2. Required value per item: MIC90.
1. CCCCCCCCn1cc(CN2CCCC2)c2cc(F)ccc21
2. CCCCCCCCn1cc(CNC2CC2)c2cc(F)ccc21

24 µM
27 µM

I need MIC90 for every entry listed below, if you could help.
1. CCCCCCCCn1cc(CN2CCCCCC2)c2cc(OC)ccc21
2. CC(C)=CCC/C(C)=C/Cn1cc(CN2CCCCCC2)c2cc(F)ccc21
3. CCCCCCCCn1cc(CN2CCC(C)CC2)c2cc(OC)ccc21
4. CCCCCCCCn1cc(CN2CCC(C)CC2)c2ccc(OC)cc21
5. CCCCCCCCn1cc(CN2CCC3(CC2)OCCO3)c2cccc(OC)c21
6. CCCCCCCCn1cc(CN2CCCCC2)c2cc(Cl)ccc21
7. CCCCCCCCn1cc(CN2CCOCC2)c2cc(F)ccc21
8. COc1ccc2c(c1)c(CN1CCCCC1)cn2C/C=C(\C)CCC=C(C)C

1. 5 µM
2. 7 µM
3. 6 µM
4. 5 µM
5. 42 µM
6. 9 µM
7. > 50 µM
8. 12 µM

---

System: Mycobacterium tuberculosis variant bovis
test: Antimycobacterial activity against Mycobacterium bovis BCG ATCC 35734 after 5 days by broth dilution method
Assay type: functional
test.conditions: ATCC 35734, 120 h
Consider the following partition of reported MIC90 into named classes: low end: < 9 µM; middle: ≥ 9 µM and < 20 µM; high end: ≥ 20 µM

Assign a category based on measured MIC90 for CC(C)=CCC/C(C)=C/Cn1cc(CNC2CCCCCC2)c2cc(F)ccc21 and give only the class name.
high end

Sort into band: CCCCCCCCn1cc(CNC23CC4CC(CC(C4)C2)C3)c2cccc(F)c21
low end

# bin lookup: classify CCCCCCCCn1cc(CN2CCCCC2)c2cccc(F)c21 by its MIC90
middle

Tag the class for CCCCCCCCn1cc(CNC2CCCC2)c2cc(F)ccc21
high end

Where would CCCCCCCCn1cc(CN2CCCCC2)c2c(OC)cccc21 land among the classes by reported MIC90?
high end

Into which category would you place CCCCCCCCn1cc(CN2CCC(C)CC2)c2ccc(F)cc21 ?
low end

Which MIC90 band matches CCCCCCCCn1cc(CNC23CC4CC(CC(C4)C2)C3)c2c(OC)cccc21 ?
middle

Which class is correct for the following compound? CCCCCCCCn1cc(CN2CCC(C)CC2)c2cccc(OC)c21
low end

Field: class (MIC90) — entry: CCCCCCCCn1cc(CN2CCCCC2)c2ccc(F)cc21
middle

# bin lookup: classify CCCCCCCCn1cc(CN2CCN(C)CC2)c2cc(F)ccc21 by its MIC90
high end
